- tgt: recombinant soluble homotrimeric HA of A/Vietnam/1203/04 (H5N1) (Influenza A virus A/VietNam/1203/2004(H5N1))
- assay.explanation: HA microarray, BCC supernatant
- reported.conditions: remark: other sources report otherwise
attribute.measured: Trimeric HA Binding: RLU

TCN-551 (5243_D01) (antibody, V domains shown) VH: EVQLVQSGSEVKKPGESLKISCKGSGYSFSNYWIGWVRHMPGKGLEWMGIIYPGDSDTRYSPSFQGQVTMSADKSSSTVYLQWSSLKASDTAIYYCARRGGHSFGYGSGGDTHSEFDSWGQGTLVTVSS VL: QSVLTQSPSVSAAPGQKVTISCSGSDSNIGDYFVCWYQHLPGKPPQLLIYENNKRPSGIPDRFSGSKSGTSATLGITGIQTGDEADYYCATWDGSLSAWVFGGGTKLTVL: 4150 RLU
TCN-557 (5081_A04) (antibody, V domains shown) VH: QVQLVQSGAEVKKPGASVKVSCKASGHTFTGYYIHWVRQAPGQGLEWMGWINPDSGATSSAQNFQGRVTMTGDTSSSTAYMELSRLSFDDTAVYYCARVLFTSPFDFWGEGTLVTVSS VL: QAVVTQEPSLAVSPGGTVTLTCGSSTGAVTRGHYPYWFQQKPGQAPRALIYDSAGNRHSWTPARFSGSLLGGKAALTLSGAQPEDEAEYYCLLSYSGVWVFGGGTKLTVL: 47300 RLU
TCN-541 (5062_M11) (antibody, V domains shown) VH: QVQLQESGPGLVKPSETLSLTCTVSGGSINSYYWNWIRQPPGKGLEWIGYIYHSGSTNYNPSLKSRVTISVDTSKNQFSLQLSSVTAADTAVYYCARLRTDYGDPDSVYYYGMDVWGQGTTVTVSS VL: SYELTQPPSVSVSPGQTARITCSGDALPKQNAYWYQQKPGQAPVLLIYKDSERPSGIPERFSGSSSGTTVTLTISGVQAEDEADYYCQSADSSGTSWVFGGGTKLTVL: 43 RLU
TCN-550 (5096_F06) (antibody, V domains shown) VH: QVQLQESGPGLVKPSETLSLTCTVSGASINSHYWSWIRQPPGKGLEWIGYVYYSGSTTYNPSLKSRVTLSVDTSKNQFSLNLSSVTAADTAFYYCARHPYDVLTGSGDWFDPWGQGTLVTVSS VL: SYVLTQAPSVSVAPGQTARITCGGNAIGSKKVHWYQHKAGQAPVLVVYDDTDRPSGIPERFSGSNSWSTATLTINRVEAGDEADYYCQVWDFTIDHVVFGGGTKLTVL: 277 RLU
TCN-537 (3194_D21) (antibody, V domains shown) VH: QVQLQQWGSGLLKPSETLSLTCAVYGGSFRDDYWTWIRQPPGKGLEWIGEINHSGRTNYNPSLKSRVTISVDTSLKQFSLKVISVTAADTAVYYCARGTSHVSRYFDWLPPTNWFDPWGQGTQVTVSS VL: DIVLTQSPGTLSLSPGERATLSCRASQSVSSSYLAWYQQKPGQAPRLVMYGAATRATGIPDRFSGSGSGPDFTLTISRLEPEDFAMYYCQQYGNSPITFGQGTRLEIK: 80 RLU
TCN-527 (5086_C06) (antibody, V domains shown) VH: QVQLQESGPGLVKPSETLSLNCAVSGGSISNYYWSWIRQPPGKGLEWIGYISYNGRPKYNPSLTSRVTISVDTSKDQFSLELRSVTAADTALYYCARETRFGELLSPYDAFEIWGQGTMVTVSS VL: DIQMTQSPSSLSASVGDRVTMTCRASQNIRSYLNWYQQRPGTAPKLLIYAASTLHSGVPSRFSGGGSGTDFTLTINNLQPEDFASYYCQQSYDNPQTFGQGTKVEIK: 21300 RLU
TCN-543 (5081_G23) (antibody, V domains shown) VH: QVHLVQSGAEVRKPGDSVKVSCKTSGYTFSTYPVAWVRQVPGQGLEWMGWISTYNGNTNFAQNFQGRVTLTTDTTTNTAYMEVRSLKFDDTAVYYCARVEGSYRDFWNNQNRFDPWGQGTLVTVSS VL: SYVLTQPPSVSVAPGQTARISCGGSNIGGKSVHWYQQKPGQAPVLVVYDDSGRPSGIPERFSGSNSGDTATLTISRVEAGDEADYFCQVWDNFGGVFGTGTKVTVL: 488 RLU
TCN-563 (5237_B21) (antibody, V domains shown) VH: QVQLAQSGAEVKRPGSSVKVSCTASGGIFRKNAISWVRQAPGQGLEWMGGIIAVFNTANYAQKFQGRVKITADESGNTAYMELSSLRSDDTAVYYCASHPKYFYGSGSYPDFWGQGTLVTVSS VL: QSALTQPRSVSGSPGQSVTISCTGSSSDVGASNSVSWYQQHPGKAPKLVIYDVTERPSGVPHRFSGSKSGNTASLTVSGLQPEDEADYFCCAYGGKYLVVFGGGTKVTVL: 4840 RLU
TCN-553 (5261_C18) (antibody, V domains shown) VH: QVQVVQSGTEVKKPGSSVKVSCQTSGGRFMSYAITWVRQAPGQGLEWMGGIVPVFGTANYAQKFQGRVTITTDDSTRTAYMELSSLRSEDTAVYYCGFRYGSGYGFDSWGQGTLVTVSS VL: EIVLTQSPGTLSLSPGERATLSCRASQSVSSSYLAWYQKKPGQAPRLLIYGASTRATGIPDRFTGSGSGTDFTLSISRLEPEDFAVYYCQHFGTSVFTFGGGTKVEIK: 6560 RLU
TCN-535 (5246_P19) (antibody, V domains shown) VH: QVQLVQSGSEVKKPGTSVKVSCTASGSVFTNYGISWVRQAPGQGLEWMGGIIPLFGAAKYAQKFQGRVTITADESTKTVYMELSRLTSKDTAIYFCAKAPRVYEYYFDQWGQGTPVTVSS VL: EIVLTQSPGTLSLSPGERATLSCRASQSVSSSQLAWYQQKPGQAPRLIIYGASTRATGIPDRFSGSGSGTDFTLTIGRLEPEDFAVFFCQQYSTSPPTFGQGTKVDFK: 4740 RLU
